Source of measurements: patent US11149023B2

# ratio IC50 hV2/hV1a per record follows
molecular target: UniProtKB P37288; assay: Cellular in vitro assay for determining vasopressin receptor activity (V1a, aequorin luminescence); assay type: cell-based; details: selectivity, IC50 hV2 divided by IC50 hV1a
The reply should be a number, written without any unit.

Some entries whose results are on file:
O=C(CF)NC(Cn1c(-c2ccc(Cl)cc2)nn(Cc2ncn(-c3ncccc3C(F)(F)F)n2)c1=O)C(F)(F)F (racemic) : 76.0
CC(=O)NC(Cn1c(-c2ccc(Cl)cc2)nn(Cc2ncn(-c3ncccc3Cl)n2)c1=O)C(F)(F)F (racemic) : 33.3
O=C(NC(Cn1c(-c2ccc(Cl)cc2)nn(Cc2ncn(-c3ncccc3C(F)(F)F)n2)c1=O)C(F)(F)F)C1CC(F)(F)C1 (racemic) : 82.2
Cl.O=C(NC(Cn1c(-c2ccc(Cl)cc2)nn(Cc2ncn(-c3ncccc3C(F)(F)F)n2)c1=O)C(F)(F)F)[C@@H]1C[C@H](F)CN1 (stereo partly drawn) : 56.1
O=C(NC(Cn1c(-c2ccc(Cl)cc2)nn(Cc2ncn(-c3ncccc3Cl)n2)c1=O)C(F)(F)F)[C@@H]1C[C@@H](F)CN1 (stereo in doubt) : 112.7

Give me measured ratio IC50 hV2/hV1a, please, for this compound: NC1(C(=O)NC(Cn2c(-c3ccc(Cl)cc3)nn(Cc3ncn(-c4ncccc4Cl)n3)c2=O)C(F)(F)F)CCC1 (racemic)
36.0

---

Here, each record is paired with measured IC50 data.
target: human V2 receptor (Homo sapiens (Human), UniProt P30518); test: Cellular in vitro assay for determining vasopressin receptor activity (V2, CRE-luciferase); conditions: CHO cell line transfected with human V2 receptor; [Arg8]-vasopressin at EC50 concentration; read-out: IC50 hV2
Sequence (P30518 whole entry): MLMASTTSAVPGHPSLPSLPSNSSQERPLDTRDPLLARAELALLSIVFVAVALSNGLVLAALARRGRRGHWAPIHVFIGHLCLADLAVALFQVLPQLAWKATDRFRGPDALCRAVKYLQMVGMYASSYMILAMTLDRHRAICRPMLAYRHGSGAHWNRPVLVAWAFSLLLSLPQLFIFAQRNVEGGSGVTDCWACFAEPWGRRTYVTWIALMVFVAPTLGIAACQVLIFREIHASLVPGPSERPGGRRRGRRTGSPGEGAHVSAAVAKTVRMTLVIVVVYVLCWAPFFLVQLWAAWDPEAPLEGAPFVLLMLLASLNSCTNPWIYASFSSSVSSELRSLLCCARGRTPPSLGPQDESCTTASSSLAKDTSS
The response must be a number in nM with no trailing unit.

Use these answered entries as a reference point.
O=C(CCC(F)(F)F)NC(Cn1c(-c2ccc(Cl)cc2)nn(Cc2ncn(-c3ncccc3Cl)n2)c1=O)C(F)(F)F (single isomer, unassigned) [Example 33] : 5600
N#CCC(=O)NC(Cn1c(-c2ccc(Cl)cc2)nn(Cc2ncn(-c3ncccc3Cl)n2)c1=O)C(F)(F)F (racemic) [Example 5] : 595

Then this compound:
Give the measured IC50 for CS(=O)(=O)CC(=O)NC(Cn1c(-c2ccc(Cl)cc2)nn(Cc2ncn(-c3ncccc3C(F)(F)F)n2)c1=O)C(F)(F)F (racemic) [Example 64]
78.2

---

Reported ratio IC50 hV2/hV1a is given for each of the following compounds.
target: human V1a receptor (Homo sapiens (Human), UniProt P37288); assay: Cellular in vitro assay for determining vasopressin receptor activity (V1a, aequorin luminescence); assay type: cell-based; conditions: selectivity, IC50 hV2 divided by IC50 hV1a
Sequence (P37288 whole entry): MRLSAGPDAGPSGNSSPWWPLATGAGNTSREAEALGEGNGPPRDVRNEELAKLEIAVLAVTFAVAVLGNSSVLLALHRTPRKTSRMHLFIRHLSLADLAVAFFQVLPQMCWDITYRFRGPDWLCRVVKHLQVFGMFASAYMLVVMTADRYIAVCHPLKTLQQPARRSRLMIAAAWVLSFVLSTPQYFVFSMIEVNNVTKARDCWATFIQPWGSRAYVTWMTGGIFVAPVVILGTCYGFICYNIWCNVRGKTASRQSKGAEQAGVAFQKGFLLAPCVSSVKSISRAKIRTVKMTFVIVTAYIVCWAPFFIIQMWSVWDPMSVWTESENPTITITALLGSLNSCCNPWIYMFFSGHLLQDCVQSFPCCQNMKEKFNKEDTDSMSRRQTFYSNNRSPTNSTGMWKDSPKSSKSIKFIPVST

Examples from the recorded data:
CS(=O)(=O)CC(=O)NC(Cn1c(-c2ccc(Cl)cc2)nn(Cc2ncn(-c3ncccc3C(F)(F)F)n2)c1=O)C(F)(F)F (racemic) [Example 64] : 65.2
O=C(CC(F)=C(F)F)NC(Cn1c(-c2ccc(Cl)cc2)nn(Cc2ncn(-c3ncccc3Cl)n2)c1=O)C(F)(F)F (racemic) [Example 31] : 32.1
O=C(NC(Cn1c(-c2ccc(Cl)cc2)nn(Cc2ncn(-c3ncccc3Cl)n2)c1=O)C(F)(F)F)c1ccc(Cl)s1 (racemic) [Example 52] : 167.9
CC(C)(C)OC(=O)N1CC(F)(F)C1C(=O)NC(Cn1c(-c2ccc(Cl)cc2)nn(Cc2ncn(-c3ncccc3Cl)n2)c1=O)C(F)(F)F (stereo not drawn) [Example 54] : 42.3
O=C(NC(Cn1c(-c2ccc(Cl)cc2)nn(Cc2ncn(-c3ncccc3Cl)n2)c1=O)C(F)(F)F)C1CCCN1 (stereo not drawn) [Example 47] : 27.0

# context switch: different compound, same ratio IC50 hV2/hV1a
Provide ratio IC50 hV2/hV1a value for the following compound: O=C(NC(Cn1c(-c2ccc(Cl)cc2)nn(Cc2ncn(-c3ncccc3Cl)n2)c1=O)C(F)(F)F)C1CC1 (racemic) [Example 14]
17.7

---

target: human V2 receptor (Homo sapiens (Human), UniProt P30518); test: Cellular in vitro assay for determining vasopressin receptor activity (V2, CRE-luciferase); settings: CHO cell line transfected with human V2 receptor; [Arg8]-vasopressin at EC50 concentration; read-out: IC50 hV2
Recorded IC50 by entry
Express it in µM; write the number only.

Solved cases (5 shown):
CS(=O)(=O)CC(=O)NC(Cn1c(-c2ccc(Cl)cc2)nn(Cc2ncn(-c3ncccc3Cl)n2)c1=O)C(F)(F)F (racemic) [Example 44] : 0.12
CC(=O)NC(Cn1c(-c2ccc(Cl)cc2)nn(Cc2ncn(-c3ncccc3Cl)n2)c1=O)C(F)(F)F (racemic) : 1.85
O=C(NC(Cn1c(-c2ccc(Cl)cc2)nn(Cc2ncn(-c3ncccc3C(F)(F)F)n2)c1=O)C(F)(F)F)C1CC1(F)F (stereo not drawn) : 0.245
O=C(CCC(F)(F)F)NC(Cn1c(-c2ccc(Cl)cc2)nn(Cc2ncn(-c3ncccc3Cl)n2)c1=O)C(F)(F)F (single isomer, unassigned) [Example 34] : 0.0335
O=C1NCC(C(=O)NC(Cn2c(-c3ccc(Cl)cc3)nn(Cc3ncn(-c4ncccc4Cl)n3)c2=O)C(F)(F)F)N1 (stereo not drawn) : 2.4

For O=C(NC(Cn1c(-c2ccc(Cl)cc2)nn(Cc2ncn(-c3ncccc3C(F)(F)F)n2)c1=O)C(F)(F)F)C1CS(=O)(=O)C1 (racemic) , write its IC50.
0.165

Determine its reported IC50: NC1(C(=O)NC(Cn2c(-c3ccc(Cl)cc3)nn(Cc3ncn(-c4ncccc4Cl)n3)c2=O)C(F)(F)F)CCC1 (racemic)
0.203

Report measured IC50; entry is CS(=O)(=O)CC(=O)NC(Cn1c(-c2ccc(Cl)cc2)nn(Cc2ncn(-c3ncccc3Cl)n2)c1=O)C(F)(F)F (single isomer, unassigned) [Example 46]
0.0578

Kindly indicate its recorded IC50. Item: O=C(NC(Cn1c(-c2ccc(Cl)cc2)nn(Cc2ncn(-c3ncccc3C(F)(F)F)n2)c1=O)C(F)(F)F)C1(C(F)(F)F)CC1 (racemic)
0.12

Kindly indicate its recorded IC50. Item: O=C(NC(Cn1c(-c2ccc(Cl)cc2)nn(Cc2ncn(-c3ncccc3Cl)n2)c1=O)C(F)(F)F)C1(C(F)(F)F)CC1 (single isomer, unassigned) [Example 42]
12.1

Respond only with IC50 recorded for O=C(NC(Cn1c(-c2ccc(Cl)cc2)nn(Cc2ncn(-c3ncccc3Cl)n2)c1=O)C(F)(F)F)C1CCN1 (stereo not drawn)
1.98

Annotate the compound CC(C)(C)OC(=O)N1CCC1C(=O)NC(Cn1c(-c2ccc(Cl)cc2)nn(Cc2ncn(-c3ncccc3Cl)n2)c1=O)C(F)(F)F (stereo not drawn) with its measured IC50.
1.03

---

Target: human V1a receptor (Homo sapiens (Human))
Test: Cellular in vitro assay for determining vasopressin receptor activity (V1a, aequorin luminescence)
Details: CHO cell line transfected with human V1a receptor; [Arg8]-vasopressin at EC50 concentration; read-out: IC50 hV1a
Experimental: B-1. Cellular In Vitro Assay for Determining Vasopressin Receptor Activity The identification of agonists and antagonists of the V1a and V2 vasopressin receptors from humans, rats and dogs as well as the quantification of the activity of the compounds of the invention is carried out using recombinant cell lines. […] The bioluminescence of the cell lines is detected using a suitable luminometer [Milligan G, Marshall F, Rees S, Trends in Pharmacological Sciences 17, 235-237 (1996)]. […]
API: label(entry) gives True if the entry's IC50 is strictly smaller than 3 nM; on equality or larger values it gives False.

Examples with answers:
O=C(CN1CCOC1=O)NC(Cn1c(-c2ccc(Cl)cc2)nn(Cc2ncn(-c3ncccc3Cl)n2)c1=O)C(F)(F)F (racemic) : False
O=C(NC(Cn1c(-c2ccc(Cl)cc2)nn(Cc2ncn(-c3ncccc3Cl)n2)c1=O)C(F)(F)F)C1CC1(F)F (stereo not shown) : True
N#CC1(C(=O)NC(Cn2c(-c3ccc(Cl)cc3)nn(Cc3ncn(-c4ncccc4C(F)(F)F)n3)c2=O)C(F)(F)F)CC1 (racemic) : False
O=C(NC(Cn1c(-c2ccc(Cl)cc2)nn(Cc2ncn(-c3ncccc3Cl)n2)c1=O)C(F)(F)F)C1(C(F)(F)F)CC1 (single isomer, unassigned) [Example 42] : False
CC(=O)NC(Cn1c(-c2ccc(Cl)cc2)nn(Cc2ncn(-c3ncccc3Cl)n2)c1=O)C(F)(F)F (racemic) : False
CC(C)(C)OC(=O)N1CC(F)(F)C1C(=O)NC(Cn1c(-c2ccc(Cl)cc2)nn(Cc2ncn(-c3ncccc3Cl)n2)c1=O)C(F)(F)F (stereo not shown) : False
O=C(CCC(F)(F)F)NC(Cn1c(-c2ccc(Cl)cc2)nn(Cc2ncn(-c3ncccc3Cl)n2)c1=O)C(F)(F)F (single isomer, unassigned) [Example 34] : True
O=C(NC(Cn1c(-c2ccc(Cl)cc2)nn(Cc2ncn(-c3ncccc3Cl)n2)c1=O)C(F)(F)F)C1COC1 (racemic) : False

Quick check: does O=C(CC(F)(F)F)NC(Cn1c(-c2ccc(Cl)cc2)nn(Cc2ncn(-c3ncccc3C(F)(F)F)n2)c1=O)C(F)(F)F (racemic) have IC50 under 3 nM?
True

Is it true that IC50 reported for NC1(C(=O)NC(Cn2c(-c3ccc(Cl)cc3)nn(Cc3ncn(-c4ncccc4Cl)n3)c2=O)C(F)(F)F)CCC1 (racemic) is less than 3 nM?
False
